Reference for the values: ChEMBL document CHEMBL1148356

Documented log10 Ki across a set of compounds
- testTarget: GABA-A receptor; alpha-3/beta-3/gamma-2 (Homo sapiens, UniProt P18507+P28472+P34903)
- Sequence (P18507 whole entry): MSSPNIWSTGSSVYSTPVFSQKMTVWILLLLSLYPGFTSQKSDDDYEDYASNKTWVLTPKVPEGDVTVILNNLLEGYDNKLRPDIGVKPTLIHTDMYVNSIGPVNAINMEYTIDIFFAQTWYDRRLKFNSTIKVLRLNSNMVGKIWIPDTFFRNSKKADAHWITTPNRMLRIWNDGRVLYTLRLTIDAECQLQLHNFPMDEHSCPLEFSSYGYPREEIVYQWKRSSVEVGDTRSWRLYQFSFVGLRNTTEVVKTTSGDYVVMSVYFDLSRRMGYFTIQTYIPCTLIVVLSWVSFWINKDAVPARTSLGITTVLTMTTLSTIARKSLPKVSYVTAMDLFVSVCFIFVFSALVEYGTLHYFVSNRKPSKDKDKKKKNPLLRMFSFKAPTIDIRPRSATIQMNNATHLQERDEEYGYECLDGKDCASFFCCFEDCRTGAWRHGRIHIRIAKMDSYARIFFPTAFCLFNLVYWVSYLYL
- Sequence (P28472 whole entry): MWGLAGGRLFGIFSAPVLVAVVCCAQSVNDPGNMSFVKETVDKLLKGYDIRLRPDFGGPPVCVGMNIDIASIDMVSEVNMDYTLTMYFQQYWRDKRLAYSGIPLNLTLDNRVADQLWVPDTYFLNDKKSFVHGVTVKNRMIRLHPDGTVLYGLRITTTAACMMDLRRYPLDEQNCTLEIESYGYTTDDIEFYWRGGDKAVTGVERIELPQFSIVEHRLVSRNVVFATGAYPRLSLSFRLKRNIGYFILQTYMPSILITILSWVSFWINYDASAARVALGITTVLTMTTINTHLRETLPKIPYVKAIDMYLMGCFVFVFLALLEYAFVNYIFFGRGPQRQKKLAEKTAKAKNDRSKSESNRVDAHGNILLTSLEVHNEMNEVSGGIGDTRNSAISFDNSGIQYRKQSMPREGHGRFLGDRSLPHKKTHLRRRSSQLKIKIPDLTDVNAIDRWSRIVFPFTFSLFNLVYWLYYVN
- Sequence (P34903 whole entry): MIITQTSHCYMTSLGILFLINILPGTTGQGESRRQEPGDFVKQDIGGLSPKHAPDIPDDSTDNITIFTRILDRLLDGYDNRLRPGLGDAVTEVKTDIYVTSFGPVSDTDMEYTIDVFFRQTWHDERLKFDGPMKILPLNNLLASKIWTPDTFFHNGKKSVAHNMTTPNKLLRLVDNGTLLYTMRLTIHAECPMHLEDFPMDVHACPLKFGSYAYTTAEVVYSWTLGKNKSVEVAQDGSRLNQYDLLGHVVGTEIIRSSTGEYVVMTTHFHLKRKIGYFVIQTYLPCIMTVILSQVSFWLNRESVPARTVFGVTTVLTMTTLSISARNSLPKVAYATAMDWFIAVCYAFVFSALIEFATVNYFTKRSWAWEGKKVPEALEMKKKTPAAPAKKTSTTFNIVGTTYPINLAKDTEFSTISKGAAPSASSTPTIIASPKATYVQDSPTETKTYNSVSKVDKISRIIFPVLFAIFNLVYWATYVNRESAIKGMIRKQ
- assayDetails: Binding affinity towards human gamma-aminobutyric-acid A receptor alpha-3-beta-3-gamma-2 using [3H]Ro-151788 expressed in L(tk-) cells
measuredEndpoint: log10 Ki (log10 of the value in µM)

Cc1noc(-c2nnc3c4c(c(OCc5ccccc5Br)nn23)C2CCC4CC2)n1
-2.21
Cc1cccc(COc2nn3c(-c4ccccc4)nnc3c3c2C2CCC3CC2)n1
-1.63
Cc1cccc(COc2nn3c(-c4ccccn4)nnc3c3c2C2CCC3CC2)n1
-0.98
CCc1noc(-c2nnc3c4c(c(OCc5cccc(C)n5)nn23)C2CCC4CC2)n1
-1.68
Cc1noc(-c2nnc3c4c(c(OCc5ccccn5)nn23)C2CCC4CC2)n1
-2.41
Cc1cccc(COc2nn3c(-c4coc(C)n4)nnc3c3c2C2CCC3CC2)n1
-1.34
Cc1cccc(COc2nn3c(-c4nc(C(C)C)no4)nnc3c3c2C2CCC3CC2)n1
-1.08
Cc1cc(-c2nnc3c4ccccc4c(OCc4ccccn4)nn23)no1
-2.85
Cc1cccc(COc2nn3c(-c4ccccc4)nnc3c3ccccc23)n1
-3.48

---

- testTarget: GABA-A receptor; alpha-1/beta-3/gamma-2 (Homo sapiens) (UniProt P14867+P18507+P28472)
- assayDetails: Percent change in electrophysiological response in Xenopus oocytes expressing Alpha1-beta3-gamma2 GABA-A receptor
- Format: functional, cell-based
- measurementConditions: Oocyte
measuredEndpoint: Efficacy (%)

Cc1noc(-c2nnc3c4c(c(OCc5ccc(C)c(C)n5)nn23)C2CCC4CC2)n1
1
Cc1cccc(COc2nn3c(-c4ccoc4)nnc3c3c2C2CCC3CC2)n1
27
Cc1cccc(COc2nn3c(-c4nc(C)no4)nnc3c3c2C2CCC3CC2)n1
-15
Cc1cccc(COc2nn3c(-c4cnccn4)nnc3c3c2C2CCC3CC2)n1
12
Cc1cccc(COc2nn3c(-c4ccccc4)nnc3c3c2C2CCC3CC2)n1
53
Cc1ccc(-c2nc3ccc(C)cn3c2CC(=O)N(C)C)cc1
133
Cc1cccc(COc2nn3c(-c4ccccc4)nnc3c3ccccc23)n1
0.7
Cc1cccc(COc2nn3c(-c4cc(C)on4)nnc3c3c2C2CCC3CC2)n1
21
Cc1noc(-c2nnc3c4c(c(OCc5ccccc5Br)nn23)C2CCC4CC2)n1
-12
Cc1cc(-c2nnc3c4ccccc4c(OCc4ccccn4)nn23)no1
-2

---

- testTarget: GABA-A receptor; alpha-3/beta-3/gamma-2 (Homo sapiens, UniProt P18507+P28472+P34903)
- assayDetails: Binding affinity towards human gamma-aminobutyric-acid A receptor alpha-3-beta-3-gamma-2 using [3H]Ro-151788 expressed in L(tk-) cells
- Format: cell-based
pKi: −log10 of the molar value.
measuredEndpoint: pKi

Cc1cccc(COc2nn3c(-c4nc(-c5ccccc5)no4)nnc3c3c2C2CCC3CC2)n1
6.64
Cc1nc(-c2nnc3c4c(c(OCc5cccc[n+]5[O-])nn23)C2CCC4CC2)[o+][n-]1
7.83

---

- testTarget: GABA-A receptor; alpha-2/beta-3/gamma-2 (Homo sapiens) (UniProt P18507+P28472+P47869)
- assayDetails: Percent change in electrophysiological response in Xenopus oocytes expressing Alpha2-beta3-gamma2 GABA-A receptor
- Assay type: functional, cell-based
- measurementConditions: Oocyte
measuredEndpoint: Efficacy (%)

Cc1ccc(-c2nc3ccc(C)cn3c2CC(=O)N(C)C)cc1
187
Cc1cccc(COc2nn3c(-c4cc(C)on4)nnc3c3c2C2CCC3CC2)n1
14
Cc1cccc(COc2nn3c(-c4cnccn4)nnc3c3c2C2CCC3CC2)n1
8
Cc1cccc(COc2nn3c(-c4nc(C)no4)nnc3c3c2C2CCC3CC2)n1
-10
Cc1cccc(COc2nn3c(-c4ccoc4)nnc3c3c2C2CCC3CC2)n1
-5
Cc1cc(-c2nnc3c4ccccc4c(OCc4ccccn4)nn23)no1
15
Cc1noc(-c2nnc3c4c(c(OCc5ccccc5Br)nn23)C2CCC4CC2)n1
-18
Cc1cccc(COc2nn3c(-c4cc(C)on4)nnc3c3ccccc23)n1
12
CCOC(=O)c1ncn2c1[C@@H]1CCCN1C(=O)c1cc(OC)ccc1-2
-17
Cc1cccc(COc2nn3c(-c4ccccc4)nnc3c3c2C2CCC3CC2)n1
35
Cc1cc(-c2nnc3c4c(c(OCc5ccccn5)nn23)CCCC4)no1
-6
Cc1cccc(COc2nn3c(-c4ccccc4)nnc3c3ccccc23)n1
-3.8

---

- testTarget: GABA-A receptor; alpha-3/beta-3/gamma-2 (Homo sapiens) (UniProt P18507+P28472+P34903)
- assayDetails: Percent change in electrophysiological response in Xenopus oocytes expressing Alpha3-beta3-gamma2 GABA-A receptor
- Format: functional, cell-based
- measurementConditions: Oocyte
measuredEndpoint: Efficacy (%)

Cc1cccc(COc2nn3c(-c4cc(C)on4)nnc3c3c2C2CCC3C2)n1 (stereo not given)
11
Cc1cccc(COc2nn3c(-c4ccoc4)nnc3c3c2C2CCC3CC2)n1
-4
Cc1cccc(COc2nn3c(-c4cnccn4)nnc3c3c2C2CCC3CC2)n1
19
Cc1ccc(-c2nc3ccc(C)cn3c2CC(=O)N(C)C)cc1
142
Cc1cccc(COc2nn3c(-c4ccccc4)nnc3c3c2C2CCC3CC2)n1
44
Cc1cc(-c2nnc3c4c(c(OCc5ccccn5)nn23)CCCC4)no1
-15
Cc1cc(-c2nnc3c4ccccc4c(OCc4ccccn4)nn23)no1
-4
Cc1cccc(COc2nn3c(-c4cc(C)on4)nnc3c3ccccc23)n1
3
Cc1noc(-c2nnc3c4c(c(OCc5ccccc5Br)nn23)C2CCC4CC2)n1
12
Cc1cccc(COc2nn3c(-c4ccccc4)nnc3c3ccccc23)n1
-8.3
Cc1cc(-c2nnc3c4c(c(OCc5ccccn5)nn23)C2CCC4C2)no1 (stereo not given)
0.6
Cc1cccc(COc2nn3c(-c4nc(C)no4)nnc3c3c2C2CCC3CC2)n1
-21
Cc1noc(-c2nnc3c4c(c(OCc5ccc(C)c(C)n5)nn23)C2CCC4CC2)n1
-21
CCOC(=O)c1ncn2c1[C@@H]1CCCN1C(=O)c1cc(OC)ccc1-2
-3
Cc1cccc(COc2nn3c(-c4cc(C)on4)nnc3c3c2C2CCC3CC2)n1
-1

---

Each entry below carries its recorded log10 of Ki.
- testTarget: GABA-A receptor; alpha-2/beta-3/gamma-2 (Homo sapiens, UniProt P18507+P28472+P47869)
- Sequence (P18507 whole entry): as the sequence (P18507 whole entry) above
- Sequence (P28472 whole entry): as the sequence (P28472 whole entry) above
- Sequence (P47869 whole entry): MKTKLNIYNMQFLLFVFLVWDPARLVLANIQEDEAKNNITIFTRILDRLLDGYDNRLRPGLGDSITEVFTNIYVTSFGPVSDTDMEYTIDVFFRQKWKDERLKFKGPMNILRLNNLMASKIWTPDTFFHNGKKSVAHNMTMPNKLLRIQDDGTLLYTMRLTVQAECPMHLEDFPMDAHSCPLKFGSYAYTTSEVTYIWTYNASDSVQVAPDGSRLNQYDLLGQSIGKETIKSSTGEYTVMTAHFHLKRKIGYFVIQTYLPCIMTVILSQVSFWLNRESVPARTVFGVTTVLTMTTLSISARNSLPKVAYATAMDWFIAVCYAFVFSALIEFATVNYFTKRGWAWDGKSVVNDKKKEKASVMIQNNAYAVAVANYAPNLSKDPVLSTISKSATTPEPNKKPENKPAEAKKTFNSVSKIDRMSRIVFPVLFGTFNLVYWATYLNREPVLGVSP
- assayDetails: Binding affinity towards human gamma-aminobutyric-acid A receptor alpha-2-beta-3-gamma-2 using [3H]Ro-151788 expressed in L(tk-) cells
measuredEndpoint: log10 of Ki (log10 of the value in nM)

Cc1cccc(COc2nn3c(-c4ccccn4)nnc3c3c2C2CCC3CC2)n1
2.36
Cc1cc(-c2nnc3c4c(c(OCc5ccccn5)nn23)CCCC4)no1
0.54
Cc1cccc(COc2nn3c(-c4ccccc4)nnc3c3ccccc23)n1
0.00
Cc1cccc(COc2nn3c(-c4coc(C)n4)nnc3c3c2C2CCC3CC2)n1
1.76
Cc1cccc(COc2nn3c(-c4cnccn4)nnc3c3c2C2CCC3CC2)n1
1.45
Cc1cccc(COc2nn3c(-c4nc(-c5ccccc5)no4)nnc3c3c2C2CCC3CC2)n1
2.31
Cc1noc(-c2nnc3c4c(c(OCc5ccccc5C#N)nn23)C2CCC4CC2)n1
0.46
Cc1noc(-c2nnc3c4c(c(OCc5ccccn5)nn23)C2CCC4CC2)n1
0.93
Cc1cccc(COc2nn3c(-c4cc(C)on4)nnc3c3c2C2CCC3C2)n1 (centres undefined)
1.58
Cc1cccc(COc2nn3c(-c4ccco4)nnc3c3c2C2CCC3CC2)n1
2.44
Cc1noc(-c2nnc3c4c(c(OCc5cccnc5)nn23)C2CCC4CC2)n1
0.76
Cc1cccc(COc2nn3c(-c4nc(-c5ccncc5)no4)nnc3c3c2C2CCC3CC2)n1
2.32
Cc1nc(-c2nnc3c4c(c(OCc5cccc[n+]5[O-])nn23)C2CCC4CC2)[o+][n-]1
1.19
Cc1cccc(COc2nn3c(-c4ccccc4)nnc3c3c2C2CCC3CC2)n1
1.65
CCc1noc(-c2nnc3c4c(c(OCc5cccc(C)n5)nn23)C2CCC4CC2)n1
1.53
Cc1cccc(COc2nn3c(-c4nc(-c5cccnc5)no4)nnc3c3c2C2CCC3CC2)n1
2.22
Cc1noc(-c2nnc3c4c(c(OCc5ccccc5Br)nn23)C2CCC4CC2)n1
1.22
Cc1ccc(-c2nc3ccc(C)cn3c2CC(=O)N(C)C)cc1 [ZOLPIDEM]
2.41
Cc1noc(-c2nnc3c4c(c(OCc5ccc(C)c(C)n5)nn23)C2CCC4CC2)n1
0.99
